All figures here come from ChEMBL document CHEMBL1811757.

# maps each entry to its inhibition
System: Hepatitis C virus isolate HC-J4
Test: Inhibition of HCV genotype 1b J4 N-terminal His-tagged NS5Bdelta21 polymerase expressed in Escherichia coli C41(DE3) assessed as amount of double-stranded RNA synthesis at 20 uM
Entry rule: numbers only, all in %.

See these solved cases before continuing.
>  <smiles_data>
CCCCc1ccc(/C=C2\Oc3cc(OC)cc(OC)c3C2=O)cc1

>  <target_or_test_system>
Hepatitis C virus isolate HC-J4

>  <units_text>
%

>  <recorded_measurement>
3

$$$$
>  <smiles_data>
O=C1/C(=C/c2cccc(O)c2)Oc2cccc(O)c21

>  <target_or_test_system>
Hepatitis C virus isolate HC-J4

>  <units_text>
%

>  <recorded_measurement>
37

$$$$
>  <smiles_data>
CCCCc1ccc(/C=C2\Oc3cccc(O)c3C2=O)cc1

>  <target_or_test_system>
Hepatitis C virus isolate HC-J4

>  <units_text>
%

>  <recorded_measurement>
42.7

$$$$
>  <smiles_data>
O=C1/C(=C/c2cccc(O)c2)Oc2cc(O)ccc21

>  <target_or_test_system>
Hepatitis C virus isolate HC-J4

>  <units_text>
%

>  <recorded_measurement>
10

$$$$
>  <smiles_data>
COc1cc(OC)c2c(c1)O/C(=C\c1cccc(O)c1)C2=O

>  <target_or_test_system>
Hepatitis C virus isolate HC-J4

>  <units_text>
%

>  <recorded_measurement>
11

$$$$
>  <smiles_data>
COc1cc(OC)c2c(c1)O/C(=C\c1ccccc1O)C2=O

>  <target_or_test_system>
Hepatitis C virus isolate HC-J4

>  <units_text>
%

>  <recorded_measurement>
0.7

$$$$

### Prompt # get_value(readout='inhibition', item= `CCCCn1cc(/C=C2\Oc3cc(O)cc(O)c3C2=O)c2ccccc21` )
### Response 95
